Where these numbers come from: the supplement of paper PMC4862054

Overview of reported normalised response across a group of compounds:
System: BT-474
assay: normalised response (% of control), CellTiter-Glo; higher = more viable cells (100 = DMSO, 0 = benzethonium chloride kill control)
reported_conditions: incubation time: 72 h
experimental_endpoint: normalised response (%)

compound: COc1c(C)cnc(Cn2cnc3c(Cl)nc(N)nc32)c1C [BIIB021] (10 nM)
unit_tag: %
readout_value: 101
//
compound: Cn1c(=O)c(F)c(Nc2ccc(I)cc2F)c2c(=O)n(C[C@@H](O)CO)cnc21 [TAK-733] (0.1 nM)
unit_tag: %
readout_value: 103
//
compound: C[C@@]1(C(=O)Nc2ccc(F)nc2)CCCN1c1nc(Nc2cc(C3CC3)n[nH]2)c2cccn2n1 (10 nM)
unit_tag: %
readout_value: 90.7
//
compound: Cc1cc(C(C)Nc2ccccc2)c2nc(N3CCOCC3)cc(=O)n2c1 (stereo not drawn) [TGX-221] (1000 nM)
unit_tag: %
readout_value: 83.3
//
compound: COc1cc(Nc2ncc(F)c(Nc3ccc4c(n3)NC(=O)C(C)(C)O4)n2)cc(OC)c1OC [Tamatinib] (1 nM)
unit_tag: %
readout_value: 98.5
//
compound: CC(C)(C)c1cc(NC(=O)Nc2ccc(-c3cn4c(n3)sc3cc(OCCN5CCOCC5)ccc34)cc2)no1 [Quizartinib] (1 nM)
unit_tag: %
readout_value: 118
//
compound: CS(=O)(=O)CCNCc1ccc(-c2ccc3ncnc(Nc4ccc(OCc5cccc(F)c5)c(Cl)c4)c3c2)o1 [Lapatinib] (100 nM)
unit_tag: %
readout_value: 99.9
//
compound: CN(c1ccccc1CNc1nc(Nc2ccc3c(c2)CC(=O)N3)ncc1C(F)(F)F)S(C)(=O)=O (1000 nM)
unit_tag: %
readout_value: 73.2
//
compound: C#Cc1cccc(Nc2ncnc3cc(OC)c(OCCCCCCC(=O)NO)cc23)c1 [CUDC-101] (10 nM)
unit_tag: %
readout_value: 98
//
compound: CS(=O)(=O)OCCCCOS(C)(=O)=O [Busulfan] (100 nM)
unit_tag: %
readout_value: 101
//
compound: CN(c1ccccc1CNc1nc(Nc2ccc3c(c2)CC(=O)N3)ncc1C(F)(F)F)S(C)(=O)=O (1 nM)
unit_tag: %
readout_value: 95.5
//
compound: COc1ncc(-c2ccc3nccc(-c4ccnnc4)c3c2)cc1NS(=O)(=O)c1ccc(F)cc1F (0.1 nM)
unit_tag: %
readout_value: 101
//
compound: CCCC(CCC)C(=O)O [Valproic acid] (100 nM)
unit_tag: %
readout_value: 98.9
//
compound: COc1ncc(-c2ccc3nccc(-c4ccnnc4)c3c2)cc1NS(=O)(=O)c1ccc(F)cc1F (100 nM)
unit_tag: %
readout_value: 52.7
//
compound: O=c1[nH]c(=O)n([C@H]2C[C@H](O)[C@@H](CO)O2)cc1F [Floxuridine] (1000 nM)
unit_tag: %
readout_value: 67.1
//
compound: CC(C)C[C@H](NC(=O)[C@H](Cc1ccccc1)NC(=O)c1cnccn1)B(O)O [Bortezomib] (1 nM)
unit_tag: %
readout_value: 99.2
//
compound: COc1c(C)cnc(Cn2cnc3c(Cl)nc(N)nc32)c1C [BIIB021] (1 nM)
unit_tag: %
readout_value: 99.1
//
compound: Cn1c(=O)c(F)c(Nc2ccc(I)cc2F)c2c(=O)n(C[C@@H](O)CO)cnc21 [TAK-733] (100 nM)
unit_tag: %
readout_value: 67.2
